# target: human ANO1 channel (isoform acd) (Homo sapiens)
# Construct: host or cells: HEK293T
# assay.text: QPatch-48 automated whole-cell electrophysiology, cumulative five-concentration single-addition protocol
# Type: cell-based
# condition: IC50s for independent experiments 1, independent experiment 1; block at +100 mV, 250 nM internal free-calcium
measurement.kind: pIC50
Scale for pIC50: -log10 of concentration given in mol/L; no unit attached.

// pIC50 value for CCc1oc2ccccc2c1C(=O)c1cc(Br)c(O)c(Br)c1 [Benzbromarone] : 5.46

---

# target: human ANO1 channel (isoform acd) (Homo sapiens, UniProt Q5XXA6)
# Construct: host or cells: HEK293T
# Sequence (Q5XXA6 whole entry, canonical isoform): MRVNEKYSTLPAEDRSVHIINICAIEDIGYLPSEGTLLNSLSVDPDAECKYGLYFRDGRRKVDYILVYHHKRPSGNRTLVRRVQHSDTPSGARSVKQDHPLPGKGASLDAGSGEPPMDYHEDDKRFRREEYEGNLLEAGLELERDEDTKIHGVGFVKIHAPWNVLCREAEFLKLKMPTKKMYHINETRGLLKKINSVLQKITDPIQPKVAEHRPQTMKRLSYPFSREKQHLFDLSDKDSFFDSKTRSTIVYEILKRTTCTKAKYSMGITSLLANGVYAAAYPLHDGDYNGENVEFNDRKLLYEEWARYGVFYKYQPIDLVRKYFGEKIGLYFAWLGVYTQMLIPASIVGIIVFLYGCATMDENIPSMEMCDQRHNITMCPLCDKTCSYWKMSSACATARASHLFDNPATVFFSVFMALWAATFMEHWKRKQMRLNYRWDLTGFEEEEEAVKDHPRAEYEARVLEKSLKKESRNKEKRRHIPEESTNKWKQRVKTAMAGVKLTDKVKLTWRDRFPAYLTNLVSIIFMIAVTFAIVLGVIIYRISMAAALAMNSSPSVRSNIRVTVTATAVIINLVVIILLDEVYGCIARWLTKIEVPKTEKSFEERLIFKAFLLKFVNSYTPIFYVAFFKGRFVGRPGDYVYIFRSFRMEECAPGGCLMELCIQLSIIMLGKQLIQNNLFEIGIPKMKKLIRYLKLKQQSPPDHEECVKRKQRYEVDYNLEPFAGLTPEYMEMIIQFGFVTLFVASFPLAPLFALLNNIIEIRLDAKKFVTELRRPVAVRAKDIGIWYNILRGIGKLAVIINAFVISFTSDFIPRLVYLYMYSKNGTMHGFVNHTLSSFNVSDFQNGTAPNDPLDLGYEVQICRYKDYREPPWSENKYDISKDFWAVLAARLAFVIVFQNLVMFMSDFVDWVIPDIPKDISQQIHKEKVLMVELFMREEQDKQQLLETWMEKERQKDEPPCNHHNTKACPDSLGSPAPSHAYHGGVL
# assay.text: QPatch-48 automated whole-cell electrophysiology, cumulative five-concentration single-addition protocol
# Format: cell-based
# condition: full plate format (with rundown), n = 3; read-out: IC50, full plate
measurement.kind: IC50 (µM)
Unit µM implied. Number only.

The recorded IC50 for entry O=C(O)c1cccnc1Nc1cccc(C(F)(F)F)c1 [Niflumic acid] equals 3.89
